tested on: SF-295; experiment: NCI tumour cell line growth inhibition, 48 h
The source made the active and inactive calls. No stated cut-off is given here; in the data, active = GI50 up to about 1.1 µM and inactive = higher.
For each entry below, report its GI50 value.

Worked cases, GI50 given:
{"compound": "CCCCCCCCCCCCCCCCSCC(COC)COP(=O)([O-])OCC[N+](C)(C)C (stereo unspecified)", "GI50": "2.49 µM (inactive)"}
{"compound": "Nc1n/c(=N\\c2ccccc2)ss1", "GI50": "> 100 µM (inactive)"}
{"compound": "CCOC(=O)c1cc(-n2nnc3ccccc32)cn1C", "GI50": "> 10 µM (inactive)"}
{"compound": "CNC(=O)CN(CC(N)=O)C(N)=O", "GI50": "> 100 µM (inactive)"}
{"compound": "O=C(O)CCC(NC(=O)c1ccc(Nc2nc3ccccc3nc2C(=O)O)cc1)C(=O)O (stereo unspecified)", "GI50": "> 100 µM (inactive)"}

Which GI50 reading was recorded for the compound O=C1CC[C@@H](S(=O)(=O)c2ccccc2)[C@@H](/C=C/c2ccccc2)O1 ?
> 100 µM (inactive)

###

system: HOP-92; assay: NCI tumour cell line growth inhibition, 48 h
Calls of active or inactive are those of the source. No stated cut-off is given here; in the data, active = GI50 up to about 1.1 µM and inactive = higher.
endpoint.name: GI50

Worked cases, GI50 given:
{"compound": "Cc1cc(OCC(=O)O)c(Cl)cc1Cl", "measured.on": "HOP-92", "endpoint.name": "GI50", "result": "> 100 µM (inactive)"}
{"compound": "CCC(C)OC(=O)C1C2CCC(O2)C1C(=O)O (stereo not given)", "measured.on": "HOP-92", "endpoint.name": "GI50", "result": "> 66.4 µM (inactive)"}
{"compound": "NC(=O)c1cc2ccccc2o/c1=N/O", "measured.on": "HOP-92", "endpoint.name": "GI50", "result": "> 100 µM (inactive)"}
{"compound": "COc1cc(/C=C/C2=NN(c3cccc(S(=O)(=O)O)c3)C3(C2)SCC(=O)N3c2nc3ccccc3s2)cc(OC)c1OC (stereo not given)", "measured.on": "HOP-92", "endpoint.name": "GI50", "result": "> 100 µM (inactive)"}
{"compound": "CCOC(=O)C1=C(C)N2CCCOC2(C)C(C(=O)OC)C1c1cccc([N+](=O)[O-])c1 (stereo not given)", "measured.on": "HOP-92", "endpoint.name": "GI50", "result": "> 100 µM (inactive)"}
{"compound": "CCOC(=O)C(NC(=O)CC)(Nc1ccc(S(=O)(=O)Nc2nc(C)cc(C)n2)cc1)C(F)(F)F (stereo not given)", "measured.on": "HOP-92", "endpoint.name": "GI50", "result": "> 100 µM (inactive)"}
{"compound": "CCCCc1c2c(c(C)c3c1C(=O)OC3)Oc1ccccc1O2", "measured.on": "HOP-92", "endpoint.name": "GI50", "result": "10.2 µM (inactive)"}
{"compound": "CC(=O)C(C(=O)c1ccc(C)cc1)[C@@H]1OC(C)(C)O[C@@H]1[C@H]1COC(C)(C)O1 (stereo not given in full)", "measured.on": "HOP-92", "endpoint.name": "GI50", "result": "35.2 µM (inactive)"}
{"compound": "Cn1c2ccccc2c(=S)c2cc(NC(=O)CCCCC(=O)Nc3ccc4c(c3)c(=S)c3ccccc3n4C)ccc21", "measured.on": "HOP-92", "endpoint.name": "GI50", "result": "> 100 µM (inactive)"}

Continue with the compound presented below.
Give GI50 (HOP-92) of the following compound: Clc1ccc(C2ON=C(c3ccccc3)N2C23CC4CC(CC(C4)C2)C3)cc1Cl (stereo not given)
7.13 µM (inactive)

The values you see were collected from ChEMBL document CHEMBL1201862.
